Every entry's value here was drawn from patent US20190225644A1.

tested_on: eIF4E (Homo sapiens)
assay_summary: biochemical
pKd: −log10 of the molar value.
Criterion: pKd meeting or surpassing 6. Met: t. Not met: f.

See these solved cases before continuing.
{"molecule": "BP(=O)(OP(=O)([O-])OC[C@H]1O[C@@H](n2c[n+](CCOc3ccc(Cl)cc3)c3c(=O)[nH]c(N)nc32)[C@H](OC)[C@@H]1O)OP(=O)(O)OC[C@H]1O[C@@H](n2cnc3c(=O)[nH]c(N)nc32)[C@H](O)[C@@H]1O (some centres unmarked) [Compound 005-2]", "cat": "t"}
{"molecule": "C[n+]1cn([C@H]2C[C@H](O)[C@@H](COP(=O)(O)OP(=O)([O-])OP(=O)(O)OC[C@H]3O[C@@H](n4cnc5c(=O)[nH]c(N)nc54)[C@H](O)[C@@H]3O)O2)c2nc(N)[nH]c(=O)c21 [Compound 005-31]", "cat": "f"}

Query: Identify whether the reported pKd of the following molecule is 6 or greater: CO[C@@H]1[C@H](O)[C@@H](COP(=O)(O)OP(=O)([O-])OP(=O)(O)OC[C@H]2O[C@@H](n3cnc4c(=O)[nH]c(N)nc43)[C@H](O)[C@@H]2O)O[C@H]1n1c[n+](CCOc2ccc(Cl)cc2)c2c(=O)[nH]c(N)nc21 [Compound 005-5]
Response: t

Query: Reported pKd at or above 6? CO[C@@H]1[C@H](O)[C@@H](COP(=O)(O)OP(=O)([O-])OP(=O)(O)OCC2O[C@@H](n3c[n+](C)c4c(=O)[nH]c(N)nc43)[C@](C)(O)[C@@H]2O)O[C@H]1n1cnc2c(=O)[nH]c(N)nc21 (some centres unmarked) [Compound 007-38]
Response: f

Query: Record C=CCn1c(=O)n([C@@H]2O[C@H](COP(=O)(O)OP(=O)(O)OP(=O)(O)OC[C@H]3O[C@@H](n4cnc5c(=O)[nH]c(N)nc54)[C@H](O)[C@@H]3O)[C@H]3OC(C)(C)O[C@@H]32)c2nc(N)[nH]c(=O)c21 [Compound 005-13] ; criterion: pKd no lower than 6. Met?
Response: f

* * *

tested_on: eIF4E (Homo sapiens, UniProt P06730)
Sequence (P06730 32-217): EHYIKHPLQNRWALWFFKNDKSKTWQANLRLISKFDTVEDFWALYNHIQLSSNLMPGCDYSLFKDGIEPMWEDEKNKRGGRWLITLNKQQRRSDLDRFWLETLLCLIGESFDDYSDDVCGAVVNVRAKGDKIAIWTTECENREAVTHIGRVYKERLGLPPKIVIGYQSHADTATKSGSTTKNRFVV
assay_summary: Binding affinities to eIF4E using surface plasmon resonance (SPR)
measurement_setup: residence time as listed in Table 12
Mark Criterion met for τ under 3 s, Criterion not met if at or over.

// below: answered molecules
{"molecule": "C[n+]1cn(C2CN(Cc3ccccc3)CC(COP(=O)(O)OP(=O)([S-])OP(=O)(O)OC[C@H]3O[C@@H](n4cnc5c(=O)[nH]c(N)nc54)[C@H](O)[C@@H]3O)O2)c2nc(N)[nH]c(=O)c21 (stereo partly shown) [Compound 006-46]", "cat": "Criterion not met"}
{"molecule": "COCCO[C@@H]1[C@H](O)[C@@H](COP(=O)(O)OP(=O)([S-])OP(=O)(O)OC[C@H]2O[C@@H](n3cnc4c(=O)[nH]c(N)nc43)[C@H](O)[C@@H]2O)O[C@H]1n1c[n+](CCOc2ccc(Cl)cc2)c2c(=O)[nH]c(N)nc21 (stereo partly shown) [Compound 005-34]", "cat": "Criterion not met"}

Query: Is it true that τ reported for CN1CC(COP(=O)(O)OP(=O)([O-])OP(=O)(O)OC[C@H]2O[C@@H](n3cnc4c(=O)[nH]c(N)nc43)[C@H](O)[C@@H]2O)OC(n2c[n+](CCOc3ccc(Cl)cc3)c3c(=O)[nH]c(N)nc32)C1 (stereo partly shown) [Compound 006-45] is less than 3 s?
Response: Criterion not met

Query: Threshold test, τ < 3 s: COc1ccc(CN2CC(COP(=O)([O-])OP(=O)(O)OP(=O)(O)OCC3OC(n4cnc5c(=O)[nH]c(N)nc54)C(O)C3O)OC(n3c[n+](C)c4c(=O)[nH]c(N)nc43)C2)cc1 (stereo not shown) [Compound 006-26]
Response: Criterion not met

Query: Dear colleague, could you confirm whether τ of COCCO[C@@H]1[C@H](O)[C@@H](COP(=O)(O)OP(=O)([O-])OP(=O)(O)OC[C@H]2O[C@@H](n3cnc4c(=O)[nH]c(N)nc43)[C@H](O)[C@@H]2O)O[C@H]1n1c[n+](CCOc2ccc(Cl)cc2)c2c(=O)[nH]c(N)nc21 [Compound 005-27] falls below 3 s? Thanks.
Response: Criterion not met

Query: Strictly below 3 s in τ? CO[C@@H]1[C@H](O)[C@@H](COP(=O)(O)OP(=O)(O)OP(=O)(O)OC[C@H]2O[C@@H]([n+]3cn(C)c4c(=O)[nH]c(N)nc43)[C@H](O)[C@@H]2O)O[C@H]1n1cnc2c(=O)[nH]c(N)nc21 [Cap1, m7GpppG(2′-Om), reference compound]
Response: Criterion met

Query: Identify whether the molecule CN(C)CCN1CC(COP(=O)(O)OP(=O)([O-])OP(=O)(O)OC[C@H]2O[C@@H](n3cnc4c(=O)[nH]c(N)nc43)[C@H](O)[C@@H]2O)OC(n2c[n+](C)c3c(=O)[nH]c(N)nc32)C1 (stereo partly shown) [Compound 006-44] records τ below 3 s.
Response: Criterion met

* * *

This section lists koff readings for UniProt P06730.
Answers are plain numbers, in s⁻¹.

{"compound": "CO[C@@H]1[C@H](O)[C@@H](COP(=O)(O)OP(=O)([O-])OP(=O)(O)OC[C@H]2O[C@@H](n3cnc4c(=O)[nH]c(N)nc43)[C@H](O)[C@@H]2O)O[C@H]1n1c[n+](C)c2c(=O)[nH]c(N)nc21 [Compound 005-14]", "tested_on": "UniProt P06730", "result": 1.7}

Short answer for CN1C[C@@H](COP(=O)(O)OP(=O)(O)OP(=O)(O)OC[C@H]2O[C@@H](n3cnc4c(=O)[nH]c(N)nc43)[C@H](O)[C@@H]2O)O[C@@H](n2c[n+](C)c3c(=O)[nH]c(N)nc32)C1 [Compound 006-1] : koff was 1.5

* * *

In what follows, each item is paired with its koff for eIF4E (Homo sapiens).
Report the figure along with its unit, number first.

The examples below pair each entry with its known result.
{"compound": "C[n+]1cn([C@@H]2O[C@H](COP(=O)([O-])OP(=O)([O-])OC[C@H]3O[C@@H](n4c[n+](C)c5c(=O)[nH]c(N)nc54)[C@H](O)[C@@H]3O)[C@@H](O)[C@H]2O)c2nc(N)[nH]c(=O)c21 [Compound 005-15]", "koff": "3.8 s⁻¹"}
{"compound": "CO[C@@H]1[C@H](O)[C@@H](COP(=O)(O)OP(=O)(O)OP(=O)(O)OC[C@H]2O[C@@H]([n+]3cn(C)c4c(=O)[nH]c(N)nc43)[C@H](O)[C@@H]2O)O[C@H]1n1cnc2c(=O)[nH]c(N)nc21 [Cap1, m7GpppG(2′-Om), reference compound]", "koff": "0.77 s⁻¹"}
{"compound": "CO[C@@H]1[C@H](O)[C@@H](COP(=O)([O-])OP(=O)([O-])OC[C@H]2O[C@@H](n3c[n+](C)c4c(=O)[nH]c(N)nc43)[C@H](O)[C@@H]2O)O[C@H]1n1c[n+](C)c2c(=O)[nH]c(N)nc21 [Compound 005-8]", "koff": "3.8 s⁻¹"}

koff for eIF4E (Homo sapiens) with input C[n+]1cn([C@@H]2O[C@H](COP(=O)(O)OP(=O)([O-])OP(=O)([O-])OP(=O)(O)OC[C@H]3O[C@@H](n4c[n+](C)c5c(=O)[nH]c(N)nc54)[C@H](O)[C@@H]3O)[C@@H](O)[C@H]2O)c2nc(N)[nH]c(=O)c21 [Compound 005-9] equals 0.41 s⁻¹

* * *

tested_on: eIF4E (Homo sapiens, UniProt P06730)
assay_summary: biochemical
pKd: −log10 of the molar value.
Label label 1 for high-side pKd (at or above 6) and label 0 for low-side pKd (below it).

Some solved cases for reference:
{"compound": "C[n+]1cn(C2CN(Cc3ccccc3)CC(COP(=O)(O)OP(=O)([O-])OP(=O)([O-])OC[C@H]3O[C@@H](n4c[n+](C)c5c(=O)[nH]c(N)nc54)[C@H](O)[C@@H]3O)O2)c2nc(N)[nH]c(=O)c21 (some centres unmarked) [Compound 006-31]", "cat": "label 0"}
{"compound": "C[C@@]1(O)[C@H](O)[C@@H](COP(=O)(O)OP(=O)(O)OP(=O)(O)OC[C@H]2O[C@@H](n3cnc4c(=O)[nH]c(N)nc43)[C@H](O)[C@@H]2O)O[C@H]1n1c[n+](CCOc2ccc(Cl)cc2)c2c(=O)[nH]c(N)nc21 [Compound 007-37]", "cat": "label 1"}

Query: Has CO[C@@H]1[C@H](O)[C@@H](COP(=O)([O-])OP(=O)([O-])OC[C@H]2O[C@@H](n3c[n+](C)c4c(=O)[nH]c(N)nc43)[C@H](O)[C@@H]2O)O[C@H]1n1c[n+](C)c2c(=O)[nH]c(N)nc21 [Compound 005-8] a recorded pKd greater than or equal to 6?
Response: label 0

Query: Item C[n+]1cn(C(CO)OC(CO)COP(=O)(O)OP(=O)(O)OP(=O)(O)OC[C@H]2O[C@@H](n3cnc4c(=O)[nH]c(N)nc43)[C@H](O)[C@@H]2O)c2nc(N)[nH]c(=O)c21 (some centres unmarked) [Compound 006-36] with pKd of 6 or above?
Response: label 0

Query: Quick check: does COCCO[C@@H]1[C@H](O)[C@@H](COP(=O)(O)OP(=O)([O-])OP(=O)(O)OC[C@H]2O[C@@H](n3cnc4c(=O)[nH]c(N)nc43)[C@H](O)[C@@H]2O)O[C@H]1n1c[n+](CCOc2ccc(Cl)cc2)c2c(=O)[nH]c(N)nc21 [Compound 005-27] have pKd greater than or equal to 6?
Response: label 1

Query: Say whether COCCO[C@@H]1[C@H](O)[C@@H](COP(=O)(O)OP(=O)([O-])OP(=O)(O)OC[C@H]2O[C@@H](n3cnc4c(=O)[nH]c(N)nc43)[C@H](OC)[C@@H]2O)O[C@H]1n1c[n+](C)c2c(=O)[nH]c(N)nc21 [Compound 005-19] shows pKd of 6 or more.
Response: label 0

Query: Is the recorded value of pKd equal to or greater than 6 for this compound? BP(=O)(OP(=O)([O-])OC[C@H]1O[C@@H](n2cnc3c(=O)[nH]c(N)nc32)[C@H](O)[C@@H]1O)OP(=O)(O)OCC1CN(C)CC(n2c[n+](C)c3c(=O)[nH]c(N)nc32)O1 (some centres unmarked) [Compound 006-30]
Response: label 0
